System: HL-60(TB) leukemia
Assay: NCI tumour cell line growth inhibition, 48 h
ASSAY_ENDPOINT: TGI

compound="CC(CCC/C=C/CCCN(C)C(=N)N)CC(C)C1OC(=O)C(C)C(O)/C=C/C(C)C(O)C(C)C(O)C(C)C(O)CCCC(O)CC2(O)OC(CC(OC(=O)CC(=O)O)CC(O)CC(O)C(C)C(O)/C=C/C=C/C1C)CC(O)C2O (stereo not given)" val="21.2 µg/mL"

Give measured TGI for every item shown.
1. O=C(CCc1nnc2s/c(=C\c3ccc(Cl)cc3Cl)c(=O)n12)Nc1cc(Cl)c(Cl)cc1Cl
2. Fc1ccccc1N=c1oc2ccc(Br)cc2cc1-c1nc2ccccc2[nH]1
3. O=C(Cc1nc2ccccc2s1)C(=O)Nc1ccccc1C(F)(F)F
4. COc1cc(OC)cc(N(C)Cc2cnc3nc(N)nc(N)c3c2C)c1

A)
> 100 µM
> 100 µM
> 100 µM
> 100 µM

---

Test system: MALME-3M melanoma
Assay: NCI tumour cell line growth inhibition, 48 h; in the data active means GI50 below about 0.43 µM; inactive means the rest
Entry note: the call must match one of Y (active), N (inactive)

Please review the entries below; each comes with its answer.
compound=CN(C)CCCn1c2c(c3ccc([N+](=O)[O-])cc3c1=O)C(=O)c1ccccc1-2 target_entity="MALME-3M melanoma" class_label=N
compound=NCCN.O=N[O-].O=N[O-].O=N[O-].O=N[O-].[Co+3].[K+] target_entity="MALME-3M melanoma" class_label=N
compound="CCN(CC)CCCC(C)NC(=S)N/N=C(\\C)c1ccccn1 (stereo not given)" target_entity="MALME-3M melanoma" class_label=N
compound=N#Cc1ccccc1C#C/C=C\C#Cc1cnccn1 target_entity="MALME-3M melanoma" class_label=N
compound="CC(=O)OC1C(OC/C2=C/C3[C@@H](C(C)C)CC=C(C)[C@@H]3CC(OC(=O)/C=C/c3cn(C)cn3)[C@]3(C)C=C[C@@]2(O)O3)OCC(O)C1O (stereo not given in full)" target_entity="MALME-3M melanoma" class_label=Y

Q) # lookup: test call for CCN(CC)CCC(CNc1c2ccc(Cl)cc2nc2ccc(OC)cc12)c1ccccc1 (stereo not given)
A) N

Q) Okay, and CC1SC(c2cccc(Oc3ccccc3)c2)N(CCc2cccs2)C1=O (stereo not given) ?
A) N

Q) Okay, and COc1cc(C2C3=C(COC3=O)N(CCO)c3cc4c(cc32)CCC4)cc(OC)c1OC (stereo not given) ?
A) N

Q) Okay, and COc1ccc(C2CC(c3cccc(Nc4ccnc5cc(Cl)ccc45)c3)=NN2c2ccc(Cl)cc2)cc1 (stereo not given) ?
A) N

Q) Okay, and Cc1nc2cc(NC(=O)CN3CCN(CCN4C(=O)c5cccc6cccc(c56)C4=O)CC3)ccc2s1 ?
A) N

---

Tested on: NCI/ADR-RES ovarian
Assay: NCI tumour cell line growth inhibition, 48 h
ASSAY_ENDPOINT: TGI

compound=Cc1nn(-c2ccccc2)c2ncc3c(c12)C(=O)N(Cc1ccccc1)C3=O assay_endpoint=TGI val="> 100 µM"

Give measured TGI for every item shown.
1. O=C1NC(N2CCCC(CO)C2)=N/C1=C\c1ccc(O)cc1 (stereo not given)
2. Cc1ccc(-c2c(C#N)c(O)n(NS(=O)(=O)c3ccccc3)c(=O)c2C#N)cc1

A)
> 100 µM
> 100 µM

---

Assign TGI to each entry below.
Tested on: M14 melanoma
Test: NCI tumour cell line growth inhibition, 48 h

Answered cases to consult:
compound="COc1nc(NC2OCC(OC(C)=O)C(OC(C)=O)C2OC(C)=O)c(N=C(C)C(C)=O)c(=O)n1C (stereo not given)" val="> 100 µM"
compound=CN1CCN(c2nc3c(c(=O)n(C)c(=O)n3C)n2C)CC1 val="> 100 µM"
compound=COc1cc2c(oc(=O)c3c4oc([Si](C)(C)C)cc4cc(OC)c23)c2cccc(O)c12 val="> 100 µM"
compound=Cc1ccc(-c2cn3c(nc4ccccc43)c(C)n2)cc1 val="> 100 µM"

Q) Consider the compound shown here: O=C1[C@@H]2C3C=CC([C@H]4C(=O)N(CO)C(=O)[C@@H]34)[C@@H]2C(=O)N1CO What is its recorded TGI?
A) > 75.2 µM
